These measurements were taken from PubChem BioAssay (NCI).

# Test system: SF-539 CNS
# procedure-details: NCI-60 one-dose screen, 48 h
# measurement-context: 10 µM unless noted
About 83,000 compounds went through this panel and 20% of them were active in at least one assay; those are over-represented in the sample as a whole. The source made the active and inactive calls. How the source made its calls: active means growth percent below 10; inactive means the rest.
Give one outcome, nothing more. List: true for active, false for inactive

Here are 3 compounds together with their reported answers.
Cc1cccc(C(=O)O)n1; false
CCN1CCN(Cc2ccc(NC(=O)c3nc4ccc5[nH]ncc5c4c4c3CCCC4)cc2C(F)(F)F)CC1; true
COc1ccc(-c2[nH]nc(N)c2-c2cc(OC)c(OC)c(OC)c2)cc1; true

Task: Short answer needed: outcome of this test for O=C(NCC(c1ccsc1)N1CCCCCC1)c1ccc(C(F)(F)F)cc1 (stereo unspecified) ?
Output: false

Task: Short answer needed: outcome of this test for CCN(CC)CCCC(C)N/C(c1cccc(OC)c1)=c1\c(=O)[nH]n(-c2c3ccccc3nc3ccccc23)c(=O)\c1=C(/NC(C)CCCN(CC)CC)c1cccc(OC)c1 (stereo unspecified) ?
Output: true

Task: Short answer needed: outcome of this test for COc1cc(NC(C)CCCN)c2ncccc2c1Sc1ccc(Cl)cc1 (stereo unspecified) ?
Output: false

Task: Short answer needed: outcome of this test for `CCN(CC)c1ccc(C(=N)c2ccc(N(C)C)cc2)cc1` ?
Output: true
